Target: ACK1 (Homo sapiens, UniProt Q07912)
Sequence (Q07912 whole entry): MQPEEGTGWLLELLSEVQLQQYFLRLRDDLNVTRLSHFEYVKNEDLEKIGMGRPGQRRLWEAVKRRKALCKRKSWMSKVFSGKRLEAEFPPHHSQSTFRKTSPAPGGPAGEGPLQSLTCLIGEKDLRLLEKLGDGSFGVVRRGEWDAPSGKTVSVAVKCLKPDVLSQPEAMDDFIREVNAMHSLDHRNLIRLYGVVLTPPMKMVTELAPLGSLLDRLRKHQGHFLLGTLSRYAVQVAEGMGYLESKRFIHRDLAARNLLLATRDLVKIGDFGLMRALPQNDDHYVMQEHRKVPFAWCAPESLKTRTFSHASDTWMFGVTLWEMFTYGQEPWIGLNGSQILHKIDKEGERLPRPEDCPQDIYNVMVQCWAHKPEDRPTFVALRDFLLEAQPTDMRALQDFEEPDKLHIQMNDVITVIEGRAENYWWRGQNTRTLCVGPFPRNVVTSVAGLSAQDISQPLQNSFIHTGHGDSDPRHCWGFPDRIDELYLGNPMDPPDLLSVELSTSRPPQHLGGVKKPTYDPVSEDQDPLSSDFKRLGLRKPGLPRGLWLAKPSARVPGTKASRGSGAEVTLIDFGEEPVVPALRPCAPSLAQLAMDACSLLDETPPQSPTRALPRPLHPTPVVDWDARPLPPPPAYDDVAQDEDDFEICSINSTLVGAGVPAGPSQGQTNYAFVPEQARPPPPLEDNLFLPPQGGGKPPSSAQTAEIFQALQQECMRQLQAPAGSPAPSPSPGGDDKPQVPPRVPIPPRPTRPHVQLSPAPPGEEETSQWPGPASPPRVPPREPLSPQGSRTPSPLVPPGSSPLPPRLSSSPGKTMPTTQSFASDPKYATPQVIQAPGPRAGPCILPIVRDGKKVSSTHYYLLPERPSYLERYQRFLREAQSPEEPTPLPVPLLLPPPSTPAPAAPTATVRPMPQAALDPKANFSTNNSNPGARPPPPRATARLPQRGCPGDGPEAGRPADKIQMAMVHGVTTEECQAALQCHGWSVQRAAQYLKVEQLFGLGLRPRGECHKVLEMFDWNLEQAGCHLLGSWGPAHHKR
Test: DSF = Differential Scanning Fluorimetry, thermal shift
Assay type: binding
quantity: DSF (ΔTm (° C.)) (°C)

Consider the worked cases shown below.
compound=CC(C)S(=O)(=O)Nc1cccc(-n2ccc3cnc(Nc4ccc(N5CCN(C)CC5)c(F)c4)nc32)c1 meas_value=4.5
compound=Cc1cc(N2CCN(C)CC2)c(F)cc1Nc1ncc2ccn(-c3cccc(N4CCCCS4(=O)=O)c3)c2n1 meas_value=6.2
compound="CN1CCN(c2ccc(Nc3ncc4ccn(CC5CCCO5)c4n3)cc2OCCO)CC1 (centres unmarked)" meas_value=5.3

[a] Cc1cc(N2CCN(C)CC2)c(F)cc1Nc1ncc2ccn(-c3ccc(NS(=O)(=O)C(C)C)cc3)c2n1
[b] COc1cc(N2CCN(C)CC2)c(F)cc1Nc1ncc2ccn(-c3cccc(NS(=O)(=O)C(C)C)c3)c2n1
**Query** Of a and b , which one carries the higher reported DSF (ΔTm (° C.))? # answer = label of selected item
**Result** a
(a: 7.3 °C, b: 4.8 °C)

[1] CC(C)S(=O)(=O)Nc1ccc(-n2ccc3cnc(Nc4ccc(N5CCN(C)CC5)c(OCCO)c4)nc32)cc1
[2] COc1cc(N2CCN(C)CC2)ccc1Nc1ncc2ccn(-c3cccc(NS(=O)(=O)C(C)C)c3)c2n1
**Query** I'm curious, which of these has a smaller DSF (ΔTm (° C.)) number: 1 or 2 ? Reply briefly: the label of your chosen item.
**Result** 1
(1: 5.3 °C, 2: 7.6 °C)

[1] COc1cc(N2CCN(C)CC2)c(F)cc1Nc1ncc2ccn(-c3ccc(S(=O)(=O)NC(C)C)cc3)c2n1
[2] COc1cc(N2CCN(C)CC2)ccc1Nc1ncc2ccn(-c3ccc(NS(=O)(=O)C(C)C)cc3)c2n1
**Query** // task: argmin of DSF (ΔTm (° C.)) over [ 1 , 2 ] Lab note: record the label of whichever item you select.
**Result** 1
(1: 4.4 °C, 2: 6.5 °C)
